Species: Rattus norvegicus
PROCEDURE_SUMMARY: Hemoglobin levels in the different assays ranged from 11.5-14.7 g/dl.
Type: functional
OBSERVABLE: Hgb levels (g/dL)
The figure you give is taken to be in g/dL; do not add the unit.

Lookup: In one line, give reported Hgb levels of the entry COc1ccc2cc([C@H](C)C(=O)O)ccc2c1 [NAPROXEN] .
Found: 7.5

Lookup: Using the record for NS(=O)(=O)c1ccc(-c2coc(=O)n2-c2ccccc2F)cc1 , state its measured Hgb levels.
Found: 11.6

Lookup: Output measured Hgb levels for this item: NS(=O)(=O)c1ccc(-c2coc(=O)n2-c2ccccc2)cc1
Found: 14.8

Lookup: Given Cc1cccc(-n2c(-c3ccc(S(N)(=O)=O)cc3)coc2=O)c1 , respond with its Hgb levels.
Found: 12.8

Lookup: Tell me measured Hgb levels for Cc1ccc(-c2cc(C(F)(F)F)nn2-c2ccc(S(N)(=O)=O)cc2)cc1 [CELECOXIB] please.
Found: 13.2

Lookup: Check the records and state Hgb levels for NS(=O)(=O)c1ccc(-c2coc(=O)n2-c2ccc(F)cc2)cc1
Found: 12.6

Lookup: // fetch Hgb levels given entry Cc1oc(=O)n(-c2ccc(Cl)c(Cl)c2)c1-c1ccc(S(N)(=O)=O)cc1
Found: 14.6
